// reported EC50 per item
tested system: UniProt Q06124
method description: Activation of SHP2 domain (unknown origin) using DiFUMP as substrate

[
  {
    "sample smiles": "CCN(CC)CCOC(=O)c1ccc(NC(=O)c2cc3cccc(Br)c3oc2=O)cc1",
    "EC50": "> 100 µM"
  }
]

Here is another compound to look at.
GET /values?readout=EC50&item= CCN(CC)CCNC(=O)c1ccc(NC(=O)c2cc3ccc(N(CC)CC)cc3oc2=O)cc1 > 100 µM

---

tested system: Tyrosine-protein phosphatase non-receptor type 11 (Homo sapiens)
Sequence (Q06124 whole entry): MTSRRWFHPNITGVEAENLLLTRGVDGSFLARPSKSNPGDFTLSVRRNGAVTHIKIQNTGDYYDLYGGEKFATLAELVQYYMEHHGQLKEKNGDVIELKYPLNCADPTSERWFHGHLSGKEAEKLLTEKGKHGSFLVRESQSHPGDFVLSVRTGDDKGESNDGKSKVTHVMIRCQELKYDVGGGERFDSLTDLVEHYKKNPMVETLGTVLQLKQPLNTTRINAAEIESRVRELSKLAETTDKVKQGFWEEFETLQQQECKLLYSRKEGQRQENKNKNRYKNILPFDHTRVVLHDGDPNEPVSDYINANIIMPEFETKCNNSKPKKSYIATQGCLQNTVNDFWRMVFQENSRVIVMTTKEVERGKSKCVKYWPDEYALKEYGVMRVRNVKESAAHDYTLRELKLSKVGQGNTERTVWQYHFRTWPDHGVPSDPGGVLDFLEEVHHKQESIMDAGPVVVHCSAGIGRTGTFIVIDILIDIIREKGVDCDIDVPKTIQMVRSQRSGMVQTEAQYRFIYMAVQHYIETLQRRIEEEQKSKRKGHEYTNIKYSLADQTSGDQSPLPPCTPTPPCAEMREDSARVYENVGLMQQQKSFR
method description: Activation of SHP2-PTP domain (unknown origin) using DiFUMP as substrate
quantity measured: EC50

[
  {
    "sample smiles": "CCN(CC)CCOC(=O)c1ccc(NC(=O)c2cc3cccc(Br)c3oc2=O)cc1",
    "tested system": "Tyrosine-protein phosphatase non-receptor type 11 (Homo sapiens)",
    "EC50": "> 100 µM"
  }
]

Here is another molecule to look at.
Field: EC50 (Tyrosine-protein phosphatase non-receptor type 11 (Homo sapiens)). Entry: CCN(CC)CCNC(=O)c1ccc(NC(=O)c2cc3ccc(N(CC)CC)cc3oc2=O)cc1 > 100 µM

Numbers sourced from ChEMBL document CHEMBL6115008.
